target_entity: hCA I (Homo sapiens, UniProt P00915)
Construct: recombinant, obtained in-house; cytosolic isoform
Sequence (P00915 2-261): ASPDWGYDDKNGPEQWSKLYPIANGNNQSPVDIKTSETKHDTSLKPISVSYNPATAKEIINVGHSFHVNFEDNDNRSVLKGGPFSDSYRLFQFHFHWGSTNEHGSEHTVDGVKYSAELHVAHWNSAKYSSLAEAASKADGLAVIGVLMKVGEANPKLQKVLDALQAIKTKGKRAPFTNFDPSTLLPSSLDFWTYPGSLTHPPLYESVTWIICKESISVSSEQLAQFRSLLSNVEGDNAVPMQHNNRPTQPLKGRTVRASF
test: stopped-flow CO2 hydrase assay
quantity_kind: Ki (nM)
Answers are plain numbers, in nM.

Solved cases (3 shown):
INSERT INTO assay_data (molecule_smiles, target_entity, quantity_kind, unit_abbreviation, numeric_readout) VALUES
  ('NS(=O)(=O)Nc1cccc(S(=O)(=O)NCC(=O)N2CCN(C(c3ccccc3)c3ccccc3)CC2)c1', 'hCA I (Homo sapiens, UniProt P00915)', 'Ki', 'nM', 58.1),
  ('NS(=O)(=O)Nc1ccc(S(=O)(=O)NCC(=O)N2CCN(C(c3ccc(F)cc3)c3ccc(F)cc3)CC2)cc1', 'hCA I (Homo sapiens, UniProt P00915)', 'Ki', 'nM', 47.8),
  ('NS(=O)(=O)Nc1cccc(S(=O)(=O)NCC(=O)N2CCN(C(c3ccc(F)cc3)c3ccc(F)cc3)CC2)c1', 'hCA I (Homo sapiens, UniProt P00915)', 'Ki', 'nM', 71.1);

Kindly consider the entry below.
Report measured Ki; entry is NS(=O)(=O)Nc1ccccc1S(=O)(=O)N1CCC(C(=O)N2CCN(C(c3ccccc3)c3ccccc3)CC2)CC1
578

* * *

Please respond with reported Ki for every item in the list.
target_entity: hCA I (Homo sapiens)
Construct: gene CA1; recombinant, obtained in-house; cytosolic isoform
test: stopped-flow CO2 hydrase assay
Type: biochemical
One number for each entry, in µM.

INSERT INTO measurements (molecule_smiles, quantity_kind, unit_abbreviation, numeric_readout) VALUES
  ('NS(=O)(=O)Nc1ccc(S(=O)(=O)N2CCN(C(c3ccc(F)cc3)c3ccc(F)cc3)CC2)cc1', 'Ki', 'µM', 0.0646),
  ('NS(=O)(=O)Nc1cccc(S(=O)(=O)N2CCN(C(c3ccccc3)c3ccccc3)CC2)c1', 'Ki', 'µM', 0.0662);

State recorded Ki with hCA I (Homo sapiens), entry NS(=O)(=O)Nc1cccc(S(=O)(=O)N2CCC(C(=O)N3CCN(C(c4ccc(F)cc4)c4ccc(F)cc4)CC3)CC2)c1 , no comment.
0.072

* * *

Ki data for VchCAα (Vibrio cholerae) follow.
Give bare numbers, in nM.

INSERT INTO assay_data (molecule_smiles, quantity_kind, numeric_readout) VALUES
  ('NS(=O)(=O)Nc1cccc(S(=O)(=O)N2CCC(C(=O)N3CCN(C(c4ccccc4)c4ccccc4)CC3)CC2)c1', 'Ki', 654),
  ('NS(=O)(=O)Nc1ccccc1S(=O)(=O)NCC(=O)N1CCN(C(c2ccccc2)c2ccccc2)CC1', 'Ki', 931),
  ('NS(=O)(=O)Nc1cccc(S(=O)(=O)N2CCN(C(c3ccc(F)cc3)c3ccc(F)cc3)CC2)c1', 'Ki', 588);

# per-item lookup of Ki; items listed below
1. NS(=O)(=O)Nc1cccc(S(=O)(=O)N2CCC(C(=O)N3CCN(C(c4ccc(F)cc4)c4ccc(F)cc4)CC3)CC2)c1
2. NS(=O)(=O)Nc1cccc(S(=O)(=O)NCC(=O)N2CCN(C(c3ccc(F)cc3)c3ccc(F)cc3)CC2)c1
3. NS(=O)(=O)Nc1ccccc1S(=O)(=O)N1CCC(C(=O)N2CCN(C(c3ccccc3)c3ccccc3)CC2)CC1
4. NS(=O)(=O)Nc1ccccc1S(=O)(=O)N1CCN(C(c2ccc(F)cc2)c2ccc(F)cc2)CC1
5. NS(=O)(=O)Nc1ccc(S(=O)(=O)N2CCC(C(=O)N3CCN(C(c4ccccc4)c4ccccc4)CC3)CC2)cc1
6. NS(=O)(=O)Nc1cccc(S(=O)(=O)N2CCN(C(c3ccccc3)c3ccccc3)CC2)c1

497
91.4
879
2800
140
334

# per-item lookup of Ki; items listed below
1. NS(=O)(=O)Nc1cccc(S(=O)(=O)NCC(=O)N2CCN(C(c3ccccc3)c3ccccc3)CC2)c1
2. NS(=O)(=O)Nc1ccc(S(=O)(=O)NCC(=O)N2CCN(C(c3ccc(F)cc3)c3ccc(F)cc3)CC2)cc1

1: 95.7; 2: 106
